experiment_summary: Mouse pharmacokinetics, oral single dose
Assay type: in vivo
measurement_setup: male, ICR, mouse, plasma, po, 30 mg/kg, mice (ICR, male), oral single dose 30 mg/kg, read-out: Area under oral curve (AUC)
readout_label: AUC (ng·h/mL)
Give bare numbers, in ng·h/mL.

COc1cc(C)[nH]c(=O)c1CN1CCc2c(Cl)c3c(c(C)c2C1=O)OC(C)([C@H]1CC[C@H](N(C)C)CC1)O3 (stereo partly drawn) = 1040

In the following, a different molecule is considered.
// recorded AUC for Cc1cc(C)c(CN2CCc3c(Br)c4c(c(C)c3C2=O)OC(C)([C@H]2CC[C@H](N(C)C)CC2)O4)c(=O)[nH]1 (single isomer, unassigned) [Compound 49] : 9960
